Can you tell me PBM binding z-score for the items I'm about to list?
Test system: PXR homodimer (NR concentration 270 nM)
Assay: PBM binding z-score (relative to random genomic background probes); higher = stronger binding; sequences stand for … in GC…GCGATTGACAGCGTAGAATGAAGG
Lab note: write the figure by itself, no unit.

Would you mind telling me what PBM binding z-score value was observed for ACTAGCAGGCCAAGGCTCACTCAAGATTAGTCCG ? -0.282

Would you mind telling me what PBM binding z-score value was observed for TAGCCTAGGTCATGCGGGCCTGTATAGTGTCGGC ? -0.864

Would you mind telling me what PBM binding z-score value was observed for CAGCCTAGGTCAGGGCCAGCATAGGAGGAACGTT ? -0.664

Would you mind telling me what PBM binding z-score value was observed for CCTAGCAGGCCAATCTGGGTTACTCAAGGCTTGA ? -0.895

Would you mind telling me what PBM binding z-score value was observed for TCTTGTGGATCAGCAGGTTAAGAAAGCTGGCCAA ? -0.204

Would you mind telling me what PBM binding z-score value was observed for GCGACTTGGGCATCAGCAGGTTACCATAACTTAA ? -0.495

Would you mind telling me what PBM binding z-score value was observed for ACTAGTTGGTCAGCTGAGGTCACACAGAATTCGG ? 1.87

Would you mind telling me what PBM binding z-score value was observed for CGAACTAGGTCTGAACAGGACAGTGAAGGATGAT ? -0.469

Would you mind telling me what PBM binding z-score value was observed for ACTCACGGGTCAACGAGGTTATAGCACGCGTATA ? 4.27

Would you mind telling me what PBM binding z-score value was observed for ACTAGCAGGCCAAGTTTGGGTCACTCACACAAAG ? 0.229

Would you mind telling me what PBM binding z-score value was observed for CCTGCTAGGTCAACGGTCAGCTAAAGCAGCTCGC ? -0.372

Would you mind telling me what PBM binding z-score value was observed for TCTTGTAGATCAAAAGGAGGTTAAGAAAGATCGA ? 0.0133

Would you mind telling me what PBM binding z-score value was observed for GCTACTAGTTGAAAGGGCAACCGAATGATTCTCG ? -0.0671

Would you mind telling me what PBM binding z-score value was observed for CGAAGGAGGGCATGAGTTGATAGCAAATGCCGAT ? -0.165

Would you mind telling me what PBM binding z-score value was observed for GGGACGAGGGCAAGTTGATAGCAGAGTTTGATGG ? 0.763

Would you mind telling me what PBM binding z-score value was observed for CGAACTAGGTGATCCAGGACAGTGAATACATTGA ? 0.369

Would you mind telling me what PBM binding z-score value was observed for TAGCCTAGGTCATGCGGGGCAGTATAGTGTCGGC ? -0.37

Would you mind telling me what PBM binding z-score value was observed for TTACCAAGGTGAGCTGAGGTGGTTGATCCAACTC ? -0.709

Would you mind telling me what PBM binding z-score value was observed for CCGACTGGGGCAGAAAGGTTTCCATACCATCCGG ? -0.948

Would you mind telling me what PBM binding z-score value was observed for TCTGCTAGGTCAGTTGGTCCGCTAACGAGCTGCC ? -0.863

Would you mind telling me what PBM binding z-score value was observed for GCTGCTAGGTCAGTTTGGTCAGCTAACGGGTACG ? -0.275

Would you mind telling me what PBM binding z-score value was observed for CGAACTCGGTCATCCAGGACAGTGAATACATTGA ? -0.0652

Would you mind telling me what PBM binding z-score value was observed for TCATGTAGGTAAAGGTGAAAGTCGAACGATATGA ? 0.207

Would you mind telling me what PBM binding z-score value was observed for AGAATGAGGTTATTAAGATCAGGGCATTGCGGTC ? 1.83

Would you mind telling me what PBM binding z-score value was observed for TCAAATAGGTAAAGGTGAAAGTCGAACGATATGA ? 0.187

Would you mind telling me what PBM binding z-score value was observed for CCTCCGAGGACAGAAGGTCAGAGCTGTCCGCTTT ? 0.0922

Would you mind telling me what PBM binding z-score value was observed for ACTAGTTGATCAGCTGAGGTCACACACAATTCGG ? 2.19

Would you mind telling me what PBM binding z-score value was observed for ATCTCTAAGTAACAAGTTCAGTGAAAGAGAGGAC ? 1.97

Would you mind telling me what PBM binding z-score value was observed for ACAGACAGTTGAGTGAAGGTAACTCAGCTGGACG ? -0.571

Would you mind telling me what PBM binding z-score value was observed for ACTAGTTGGTCCGCTGAGGTCACACACAATTCGG ? 2.24

Would you mind telling me what PBM binding z-score value was observed for CCGACTGGGGCAAGGTTACCCTAACGCACAGCCA ? -0.208

Would you mind telling me what PBM binding z-score value was observed for TAGCCTAGGTCAGATCGGGCCAGTAGACGCTATA ? -0.847

Would you mind telling me what PBM binding z-score value was observed for CCTTACGGGTCACTCCAGGCTATAGCATCGGAGT ? -0.213

Would you mind telling me what PBM binding z-score value was observed for TCTCGGAGGACACGAAGGACAGAGCTTTCCAGAG ? -0.367

Would you mind telling me what PBM binding z-score value was observed for AGAACGAGTGCAATGAGTTGATAGCACGGGTGGC ? 7.51

Would you mind telling me what PBM binding z-score value was observed for CCTACTGAGCCAAAAAGGTCATTGATGCCGATAA ? 2.44

Would you mind telling me what PBM binding z-score value was observed for GGAACGAGGGCATTCGAGTTGATAGCGTGGCGAT ? 1.79

Would you mind telling me what PBM binding z-score value was observed for CCGACTTGGGCAGAAAGGTTACCATACCATCCGG ? -0.331

Would you mind telling me what PBM binding z-score value was observed for GCAGACAGGTAAAACGCAGGTAACTCAGGGTGGC ? -0.484

Would you mind telling me what PBM binding z-score value was observed for AGTCAAAGTTCATCTAGGTAACGCAAGATATGCT ? 6.5

Would you mind telling me what PBM binding z-score value was observed for GCGACTGGGGCATCAGCAAGTTACCATAACTTAA ? -0.789

Would you mind telling me what PBM binding z-score value was observed for GATAGCAGGCCATTTGGGTCACTCAATGACGGGC ? 0.0979

Would you mind telling me what PBM binding z-score value was observed for ATCTCTAGGTGAAGATAGTTCAGTGAATGCAAAT ? 0.667

Would you mind telling me what PBM binding z-score value was observed for ACTATTAGTTGACTTAGGGCATCCGATACGACGC ? 0.228

Would you mind telling me what PBM binding z-score value was observed for TAGCCTAGGTCATGGGGCAGTATACCACGCGAAC ? -0.439

Would you mind telling me what PBM binding z-score value was observed for GCTGCTAGGTCTGGTTGGTCAGCTAACGGGTACG ? -0.661

Would you mind telling me what PBM binding z-score value was observed for GCTAGTTGGTCAGTAAAAGGTCACATACCGGTCG ? 0.988

Would you mind telling me what PBM binding z-score value was observed for AGTATGAGGTTACCAAAGATCAGGGAAACGCTTG ? 0.275

Would you mind telling me what PBM binding z-score value was observed for TATTGTAGATCAACAGGAGGTTAAGAAAGATCGA ? 0.0451

Would you mind telling me what PBM binding z-score value was observed for GCATATAGGTAATACAAGGTGAAGGTCCGATTGT ? 0.248

Would you mind telling me what PBM binding z-score value was observed for ATCGAAAGGTCGAAGTTGAGTATACCCACCCGAA ? 0.0112

====

Test system: THRa:RXRa (NR concentration 90 nM, RXRa partner concentration 90 nM)
Experiment: PBM binding z-score (relative to random genomic background probes); higher = stronger binding; sequences stand for … in GC…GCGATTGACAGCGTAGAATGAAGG
Can you tell me PBM binding z-score for the items I'm about to list?
Lab note: write the figure by itself, no unit.

Would you mind telling me what PBM binding z-score value was observed for GCTGGTAGGTCAGGTTGGTCAGCTAACGGGTACG ? 1.12

Would you mind telling me what PBM binding z-score value was observed for CGAACTAGGTCATTGACAGGAGAGTGAATAGTAA ? 2.48

Would you mind telling me what PBM binding z-score value was observed for ATATGTAGGTTAGCCGGGGTCATTCAGACTAGGC ? 5.21

Would you mind telling me what PBM binding z-score value was observed for TATACAGGGTCAAAGGCTAGAGTACGAATGTCGA ? 3.44

Would you mind telling me what PBM binding z-score value was observed for TCTATTAGTTGATTAGGGCAGCCGAAACAGCGGA ? 0.393

Would you mind telling me what PBM binding z-score value was observed for CCTATTGGGCCAAAGGTCATTGATTCCAATGCTC ? 3.29

Would you mind telling me what PBM binding z-score value was observed for GCTTGTAGATCATGGTTAAGAAAGACTAAGCTAA ? -0.389

Would you mind telling me what PBM binding z-score value was observed for AATACATGGTCACTAGGCCAGAGTAGGTACGAAT ? -0.00579

Would you mind telling me what PBM binding z-score value was observed for AATACAGGGTCATCGTCGGCCAGAGTACGCACAG ? 4.1

Would you mind telling me what PBM binding z-score value was observed for ACTTACGGGTCAACAAGGTTATAGCACGCGTATA ? 4.04

Would you mind telling me what PBM binding z-score value was observed for CCTACTGGGCCAACAGGTCATTGATATCAACGTT ? 1.63

Would you mind telling me what PBM binding z-score value was observed for GCGACTGGGGAAAAGCAGGTTACCATAAGGTTGG ? 1.25
